test system: KB; assay: Cytotoxicity against human KB cells after 72 hrs ny MTT assay; type: functional, cell-based
Endpoint name: IC50 (µM)
Answer with a number only, understood to be in µM.

CCCOP(=O)(OCCC)C(NC(=O)COc1ccc(Cl)cc1)c1ccccc1 (stereo unspecified) | 23

I have this molecule here, CCCCOP(=O)(OCCCC)C(NC(=O)COc1ccc(F)cc1Cl)c1ccccc1 (stereo unspecified) , and I need its recorded IC50. 12.3

Param item: CCCCOP(=O)(OCCCC)C(NC(=O)COc1cccc(C)c1C)c1ccccc1 (stereo unspecified) 18.2

Param item: CCCCOP(=O)(OCCCC)C(NC(=O)COc1ccc(OC)cc1)c1ccccc1 (stereo unspecified) 25.5

Param item: CCCCOP(=O)(OCCCC)C(NC(=O)COc1ccc(Cl)cc1Cl)c1ccccc1 (stereo unspecified) 17.8

Param item: CCCCOP(=O)(OCCCC)C(NC(=O)COc1ccc(Cl)cc1C)c1ccccc1 (stereo unspecified) 12.3

Param item: CCCOP(=O)(OCCC)C(NC(=O)COc1ccc(Cl)cc1Cl)c1ccccc1 (stereo unspecified) 16
